Target: T1, recombinant soluble human IL-6 receptor (SR344) (human, UniProt P08887 20-344, biotinylated (sites not given) where immobilized via streptavidin or used in phage ELISA)
T1 construct: also called soluble IL-6 receptor; membrane-type IL-6 receptor (when biotinylated and immobilized on the chip)
T1 sequence (looked up): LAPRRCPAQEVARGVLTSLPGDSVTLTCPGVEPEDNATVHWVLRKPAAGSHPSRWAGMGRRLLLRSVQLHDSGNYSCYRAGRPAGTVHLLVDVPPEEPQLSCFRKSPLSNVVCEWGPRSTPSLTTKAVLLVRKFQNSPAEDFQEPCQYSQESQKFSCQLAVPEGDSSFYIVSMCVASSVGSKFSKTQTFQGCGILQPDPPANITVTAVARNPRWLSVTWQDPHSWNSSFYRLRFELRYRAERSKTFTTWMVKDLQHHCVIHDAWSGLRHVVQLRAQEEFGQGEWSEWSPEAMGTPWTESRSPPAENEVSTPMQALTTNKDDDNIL
Assay: SPR Biacore T100, biotinylated SR344 on streptavidin chip (model of membrane IL-6 receptor), antibody 0.5 ug/mL as analyte, 37 C
observed-property: kd ratio pH 5.8/pH 7.4

Form: binder = CLH5/L73 (antibody, IgG1, V domains shown, expressed and purified as IgG) VH: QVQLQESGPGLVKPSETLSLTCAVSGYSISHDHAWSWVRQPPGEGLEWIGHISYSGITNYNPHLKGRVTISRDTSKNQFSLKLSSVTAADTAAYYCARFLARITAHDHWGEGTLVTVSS VL: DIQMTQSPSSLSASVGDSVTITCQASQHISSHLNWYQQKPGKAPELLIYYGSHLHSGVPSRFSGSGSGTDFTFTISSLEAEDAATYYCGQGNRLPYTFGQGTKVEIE ; kd ratio pH 5.8/pH 7.4 = 5.5
